Record form. Attribute: fluorescence artifact activation. Fill in for each entry.
Assay: IANBD-channel fluorescence artefacts in buffer – biochemical, artefact control for cardiac RTF calcium sensitizer project, confirmation (AID 504382)
Settings: IANBD fluorescence interference counterscreen, EC20 Ca2+, at 7.2 µM, stronger effect = higher value, scaled: EC20 calcium 0, EC100 calcium 100
In all, about 2,500 compounds went through this assay and about 460 (18%) were called active. Not all results are given here.
Give bare numbers, in %.

The cases that follow already have their fluorescence artifact activation on record.
CN1CCC/C1=C1/C(=O)N(c2ccccc2)N=C1NC(=O)Nc1cccc(Cl)c1 = 0.05
CN(C)c1ccc(/C=C/c2cc[n+](C)cc2)cc1 = 14.5
CN(C)c1ccc(/C=C/c2cc[n+](C)c3ccccc23)cc1 = 0.06
NC(=O)c1c(NC(=O)c2ccccc2)sc2c1CCN(Cc1ccccc1)C2 = 37.1
Cc1ccc(/C=C/c2ccc(N(C)C)cc2)[n+](C)c1 = 1.46

Required: fluorescence artifact activation, one value per compound below.
1. CCOC(=O)c1c(-c2ccccc2Cl)csc1NC(=O)c1cc(S(=O)(=O)N2CCOCC2)ccc1C
2. Cc1c(N=C2N=C(NC(=O)Nc3ccc(Cl)cc3)c3ccccc32)c(=O)n(-c2ccccc2)n1C

[out]
1: -0.04; 2: 20.3

Required: fluorescence artifact activation, one value per compound below.
1. O=C(CNC(=O)c1cccc(Cl)c1)N/N=C/c1cccnc1
2. CC1CCC(C(C)C)C(OC(=O)Cn2c(-c3ccccc3)[n+](C)c3ccccc32)C1 (stereo not given)
3. CN1CC=C2C(C#N)=C(N)C(C#N)(C#N)[C@H](c3cccs3)[C@H]2C1

[out]
0.03
0
0.05

---

Assay: IANBD-channel fluorescence artefacts in buffer – biochemical, artefact control for cardiac RTF calcium sensitizer project, confirmation (AID 504382)
Conditions: IANBD fluorescence interference counterscreen, EC20 Ca2+, at 7.2 µM, stronger effect = higher value, scaled: EC20 calcium 0, EC100 calcium 100
The campaign covered roughly 2,500 compounds. About 460 (18%) were called active. The list is a sample of the results.
Record form. Attribute: fluorescence artifact activation. Fill in for each entry.
Numbers only, in %.

COc1ccc(C(=O)c2sc3nc(C)cc(-c4cccs4)c3c2N)cc1 = 6.39

Required: fluorescence artifact activation, one value per molecule below.
1. O=C(/C=C/c1cccc(F)c1)Nc1cc(S(=O)(=O)N2CCOCC2)ccc1N1CCCC1
2. COc1ccc(S(=O)(=O)N2CCC(C(=O)NC(C)CCc3ccccc3)CC2)cc1 (stereo not given)
3. Nc1cccc(N2C(=O)c3cccc4c(N)ccc(c34)C2=O)c1

[out]
1: 0.02; 2: -0.01; 3: 0.16

---

Test: IANBD-channel fluorescence artefacts in buffer – biochemical, artefact control for cardiac RTF calcium sensitizer project, confirmation (AID 504382)
Conditions: IANBD fluorescence interference counterscreen, EC20 Ca2+, at 7.2 µM, scaled: EC20 calcium 0, EC100 calcium 100
Among all 2,500 compounds or so, about 460 (18%) were called active.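 Rule for the calls: active = mean activation above a cutoff of low control average plus 3 SD from the earlier screen (cut at about 12% in these data); inactive = the rest.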 A selection follows.
Valid outcomes are listed here; reply with one: yes (1) for active, no (0) for inactive

Some entries whose results are on file:
OCCN=C1CCCc2c1[nH]c1ccc(Cl)cc21 = no (0)
COc1ccc(OC)c(C2C3CN(C(C)C)CC=C3C(C#N)=C(N)C2(C#N)C#N)c1 (centres undefined) = no (0)
Cc1onc(-c2ccccc2Cl)c1C(=O)N(Cc1ccc(N(C)C)cc1)C(C)C = no (0)
COC(=O)C1=C(C(=O)OC)[C@@H]2Nc3ccccc3[C@@]23C[C@@H](C(=O)OC)N(C(=O)c2cccs2)C3=N1 = no (0)
CSc1nnc(N(CCC#N)CCC#N)s1 = no (0)

[in] What was the test verdict on `CC[n+]1c(/C=C/N(C)c2ccccc2)oc2ccc(F)cc21` ?
[out] no (0)

[in] Another: COc1ccc(C)cc1NC(=O)C12CCC(C)(C(=O)O1)C2(C)C (centres undefined)
[out] no (0)

[in] Another: `N#C/C(=C/c1ccc(N2CCCCC2)o1)C(=O)NCCc1c[nH]c2ccccc12`
[out] yes (1)

---

Experiment: IANBD-channel fluorescence artefacts in buffer – biochemical, artefact control for cardiac RTF calcium sensitizer project, confirmation (AID 504382)
Details: IANBD fluorescence interference counterscreen, EC20 Ca2+, at 7.2 µM, stronger effect = higher value, scaled: EC20 calcium 0, EC100 calcium 100
Hit rate of the full screen: of about 2,500 compounds, about 460 (18%) were called active. A selection follows.
recordedMetric: fluorescence artifact activation (%)
Answers are plain numbers, in %.

The cases that follow already have their fluorescence artifact activation on record.
Cc1ccc(-n2c(C)cc(C(=O)COC(=O)c3ccc[nH]c3=O)c2C)cc1 = -0.02
CCN(CC)c1ccc2oc(=O)c(C)nc2c1 = 124
COc1ccc(-n2c(C)cc(/C=C3\SC(=S)NC3=O)c2C)cc1 = -0.04

Required: fluorescence artifact activation, one value per compound below.
1. CCOC(=O)c1c(NC(=S)N2CCN(C)CC2)sc2c1CCN(C(=O)OCC)C2
2. COC(=O)CCCCCN1C(=O)/C(=C\c2ccncc2)SC1=S
3. CCOC(=O)C1=C(C)N=c2s/c(=C/c3ccc(OCC(=O)O)cc3)c(=O)n2C1c1ccc(SC)cc1 (stereo not drawn)
4. COc1ccccc1NS(=O)(=O)c1cc(NC(=O)c2cc3ccccc3oc2=O)ccc1C
5. C=CCOc1ccc(/C=C2\SC(=Nc3cccnc3)NC2=O)cc1

[out]
1.28
-0.01
0.15
16.8
0.04

Required: fluorescence artifact activation, one value per compound below.
1. Cc1cc(C)c2c(=O)n(-c3ccccc3)[nH]c2n1
2. Cc1cccn2c(=O)c(/C=C3\SC(=S)NC3=O)c(NCCCN3CCOCC3)nc12
3. O=C(N/C(=C/c1cn(-c2ccccc2)nc1-c1ccccc1)C(=O)N1CCOCC1)c1ccc(Cl)cc1Cl
4. CCN(CC)c1ccc2c(c1)oc(=O)c1c(Cl)cc(=O)oc12

[out]
1. 0.96
2. 21.4
3. 3.44
4. 21.4

Required: fluorescence artifact activation, one value per compound below.
1. CCSc1nnc(-c2sc3nnc(-c4ccccc4)c(-c4ccccc4)c3c2N)o1
2. CCN(CC)c1ccc2c(Cl)c(Br)c(=O)oc2c1
3. O=C1NC(=S)S/C1=C/c1ccc(N2CCOCC2)o1
4. COc1cc(CCCN2C(=S)NC[C@@H]2CC2CCCCC2)cc(OC)c1OC
5. COc1ccccc1NS(=O)(=O)c1cc(NC(=O)CCNC(C)=O)ccc1N1CCCCC1

[out]
0.15
0.1
1.59
7.7
0.74

Required: fluorescence artifact activation, one value per compound below.
1. Cc1ccc(C(C(=O)NC2CCCC2)N(C(=O)Cc2cccs2)c2cccc(C)c2C)o1 (stereo not drawn)
2. CCN(CC)c1ccc(/C=c2\sc3nnc(-c4ccccc4Cl)n3c2=O)cc1
3. Cc1ccc(/C=C/C(=O)Nc2cccc3cccnc23)o1
4. COc1ccccc1NS(=O)(=O)c1ccccc1C#N
5. CCn1c(C)c(CCC(=O)O)c(=O)n2nc(-c3ccccc3OC)cc12
6. CCOc1ccc(N=C2NC(=O)S/C2=C\c2ccc(N(C)C)cc2)cc1
7. Cc1cccn2c(=O)c(/C=C3\SC(=S)N(CC(C)C)C3=O)c(NCCCOC(C)C)nc12

[out]
[0, 13.8, 4.18, -0.04, 0.2, 1920, 17.1]

---

Test: IANBD-channel fluorescence artefacts in buffer – biochemical, artefact control for cardiac RTF calcium sensitizer project, confirmation (AID 504382)
Conditions: IANBD fluorescence interference counterscreen, EC20 Ca2+, at 7.2 µM, stronger effect = higher value, scaled: EC20 calcium 0, EC100 calcium 100
About 460 (18%) of roughly 2,500 compounds were called active. A selection follows.
Record form. Attribute: fluorescence artifact activation. Fill in for each entry.

COc1cc(/C=C(\C#N)c2nc3ccccc3o2)ccc1O = 0.62% (inactive)
CCOCCCNC(=S)NCCCNc1nc2c(C)cc(C)cc2cc1C#N = 0.14% (inactive)
CCc1ccc(/C=N/n2c(C)cc(C)c(C#N)c2=O)cc1 = 0.12% (inactive)

Could you now look at the following molecule, please?
[in] GET /values?readout=fluorescence artifact activation&item= `CN(C)c1ccc(/C=C(\C#N)C(=O)Nc2nc3c(s2)CCN(Cc2ccccc2)C3)cc1`
[out] 0.06% (inactive)

---

Assay: IANBD-channel fluorescence artefacts in buffer – biochemical, artefact control for cardiac RTF calcium sensitizer project, confirmation (AID 504382)
Settings: IANBD fluorescence interference counterscreen, EC20 Ca2+, at 7.2 µM, stronger effect = higher value, scaled: EC20 calcium 0, EC100 calcium 100
The whole screen tested about 2,500 compounds, of which about 460 (18%) were called active. The list is a sample of the results.
recordedMetric: fluorescence artifact activation (%)
Give bare numbers, in %.

The cases that follow already have their fluorescence artifact activation on record.
Cc1c2ccccc2nc2c(F)c(N(C)C)c(F)c(F)c12 = 0.16
COc1c(O)cccc1-c1nnn(CCC(=O)OCC(=O)c2ccccc2)n1 = 10.9

Required: fluorescence artifact activation, one value per compound below.
1. COc1ccc(N2CCN(C(=O)Cn3nnc(-c4ccccc4N)n3)CC2)cc1
2. COc1ccc(Cn2nnc3ccccc32)cc1
3. COc1cccc2cc(-c3nc(-c4cccs4)cs3)c(=O)oc12
4. Nc1ccc2c3c(cccc13)C(=O)N(c1ccccc1)C2=O
5. CCOc1ccccc1C1C(C#N)=C(N)SC(N)=C1C#N
6. COc1ccccc1N=C1NC(=O)/C(=C/c2ccc(N(C)C)cc2)S1
7. O=C(CC1SC(N2CCCCC2)=NC1=O)Nc1ccc(C(=O)NCc2ccccc2)cc1 (stereo not given)

[out]
20.6
0.37
-0.05
0.18
0.08
0.13
3.4
